tgt: Gal(b1-4)Glc
procedure-details: glycan array binding signal (z-score within array); higher = stronger binding
cond: glycan notation: IUPAC condensed, linker removed
The full list was thinned out, with the strongest signals kept by preference.

>  <binder>
Mannose Binding Protein (Lactobacillus plantarum) (protein) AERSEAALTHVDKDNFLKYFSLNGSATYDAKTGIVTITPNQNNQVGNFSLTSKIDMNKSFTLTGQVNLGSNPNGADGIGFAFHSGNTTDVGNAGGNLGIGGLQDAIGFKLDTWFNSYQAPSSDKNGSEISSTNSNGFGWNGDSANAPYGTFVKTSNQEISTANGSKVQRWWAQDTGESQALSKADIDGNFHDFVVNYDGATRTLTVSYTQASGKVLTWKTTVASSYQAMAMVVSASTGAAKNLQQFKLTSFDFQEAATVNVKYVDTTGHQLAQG

>  <glycan array binding signal (z-score)>
-0.319

$$$$
